Recorded pIC50 values for a group of compounds are listed next.
molecular target: Histone deacetylase 2 (Homo sapiens); assay: Inhibition of recombinant HDAC2 (unknown origin) after 10 mins by fluorimetric analysis
Sequence (Q92769 whole entry): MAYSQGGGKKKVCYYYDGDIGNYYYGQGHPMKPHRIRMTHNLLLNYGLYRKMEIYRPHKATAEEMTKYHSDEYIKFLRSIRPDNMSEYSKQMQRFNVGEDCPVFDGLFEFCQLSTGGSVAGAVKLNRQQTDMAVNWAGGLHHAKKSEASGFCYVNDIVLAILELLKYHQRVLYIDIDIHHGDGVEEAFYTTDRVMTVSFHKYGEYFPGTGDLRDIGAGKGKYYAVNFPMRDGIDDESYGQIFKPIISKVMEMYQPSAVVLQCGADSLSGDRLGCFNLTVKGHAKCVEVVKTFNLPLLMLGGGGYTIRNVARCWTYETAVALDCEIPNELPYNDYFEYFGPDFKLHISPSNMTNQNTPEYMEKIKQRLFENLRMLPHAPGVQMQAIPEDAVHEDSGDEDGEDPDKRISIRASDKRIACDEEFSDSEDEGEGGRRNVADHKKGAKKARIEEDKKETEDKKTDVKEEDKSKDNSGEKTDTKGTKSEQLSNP
pIC50: −log10 of the molar value.

test_smiles	measurement_target	pIC50
CC[C@H](C)C(=O)O[C@H]1C[C@@H](C)C=C2C=C[C@H](C)[C@H](CC[C@@H](O)C[C@@H](O)CC(=O)NO)[C@H]21	Histone deacetylase 2 (Homo sapiens)	6.33
C[C@H]1C=C2C=C[C@H](C)[C@H](CC[C@@H]3C[C@@H](O[Si](C)(C)C(C)(C)C)CC(=O)O3)[C@H]2[C@@H](OC(=O)NCCCCCCC(=O)NO)C1	Histone deacetylase 2 (Homo sapiens)	6.18
CCC(C)(C)C(=O)O[C@H]1C[C@@H](C)C=C2C=C[C@H](C)[C@H](CC[C@@H](O)C[C@@H](O)CC(=O)NO)[C@H]21	Histone deacetylase 2 (Homo sapiens)	6.38
C[C@H]1C=C2C=C[C@H](C)[C@H](CC[C@@H]3C[C@@H](O[Si](C)(C)C(C)(C)C)CC(=O)O3)[C@H]2[C@@H](OC(=O)Nc2ccc(-c3cn(CCCCCCC(=O)NO)nn3)cc2)C1	Histone deacetylase 2 (Homo sapiens)	6.33
C[C@H]1C=C2C=C[C@H](C)[C@H](CC[C@@H]3C[C@@H](O[Si](C)(C)C(C)(C)C)CC(=O)O3)[C@H]2[C@@H](OC(=O)NCc2ccc(-c3cn(CCCCCCC(=O)NO)nn3)cc2)C1	Histone deacetylase 2 (Homo sapiens)	6.05
